Assignment: determine reported CC50 for the given compounds.
test: NOVARTIS: Cytotoxicity against human hepatocellular carcinoma cell line (Huh7); type: toxicity, cell-based, Huh-7; conditions: Huh7 cells (hepatocellular carcinoma cell line)

Using known records, supply CC50 for CCCc1c2ccc(C)n2cc[n+]1CC(=O)c1ccc(OC)cc1 > 100 µM

# return recorded CC50 for entry CCOC(=O)C1=C(C)NC2=C(C(=O)C(C(=O)OCC)C(c3ccccc3OC)C2)C1c1cccs1 (stereo unspecified) > 100 µM

For Cc1ccc2nc(-c3ccccc3)cc(C(=O)Nc3ccc(Cl)cc3)c2c1 , write its CC50. > 10 µM

Report measured CC50; entry is Cc1cc(Cl)ccc1NC(=O)c1ccccc1[N+](=O)[O-] > 100 µM

Please indicate CC50 recorded for CCc1ccc(C=NNC(=O)COc2ccc3c(c2)OCO3)cc1 > 10 µM

Identify the reported CC50 for the following entry. O=C(CSc1nnc2c(n1)[nH]c1ccccc12)Nc1ccc([N+](=O)[O-])cc1 > 100 µM

Note down CC50 recorded for N#Cc1c(NC(=O)CCl)c(C(=O)c2ccccc2)n2c1CCC2 > 74.2 µM

Report CC50, nothing else, for this compound: COc1ccccc1N1CCN(Cc2cc(C(C)C)c(C)cc2O)CC1 77.5 µM

Give CC50 for the following compound: Cc1ccc(Nc2nc3nonc3nc2N(C)C)cc1Cl > 10 µM

Quickly give me recorded CC50 for CCC(=O)Nc1cc(NC(=O)CSc2nc(C)c(CC)c(O)n2)ccc1C 3.92 µM

Give CC50 for CCOC(=O)N1CCC(NC(=O)CSCc2nc(-c3cccc(OC)c3)oc2C)CC1 > 10 µM

###

test system: Plasmodium falciparum; assay: NOVARTIS: Inhibition of Plasmodium falciparum 3D7 (drug-susceptible) proliferation in erythrocyte-based infection assay; format: functional, organism-based; conditions: Plasmodium falciparum, 3D7
Give EC50 for every item shown.
Numbers only; they are read as nM.

Return value of EC50 for input O=C(NN=Cc1cc2ccccc2cc1O)c1cccnc1 , no commentary. 871

Consider the compound CCOc1ccc2nc3cc(NCc4ccco4)ccc3c(N)c2c1 . State its measured EC50. 846

Supply reported EC50 belonging to this compound: Cc1ccc(C=NNC(=O)c2nnn(-c3nonc3N)c2-c2ccc([N+](=O)[O-])cc2)cc1 204

Provide one value: measured EC50 of S=C(NC1CCCCC1)NC1CC2CCC(C1)N2Cc1ccccc1 (configuration not stated) 2970

Identify EC50 associated with the compound COc1ccc(C=NNc2cc(C)nc3ccc(OC)cc23)c(OC)c1 33.1

Kindly indicate its recorded EC50. Item: Cc1ncc(CN2CCC(C(=O)Nc3ccc(-n4cccn4)cc3)CC2)s1 3190

Item CCN1CCCC(Nc2ccnc3cc4ccccc4cc23)C1 (configuration not stated) : provide EC50 8.24

State its EC50 for this compound: CCCCN(C(=O)c1ccccc1C)c1nc(-c2cc(OC)ccc2OC)cs1 1720

Give EC50 for CCCCCc1ccc(C(=O)N(C)CCCNc2ccnc3cc(Cl)ccc23)cc1 250

Consider the compound COc1ccccc1CNC(=O)C1c2ccccc2C(=O)N2CCc3ccccc3C12 (configuration not stated) . State its measured EC50. 4900

Provide measured EC50 value, entry: O=[N+]([O-])c1ccc(-c2cn3nc(C(F)(F)F)sc3n2)cc1 1050

Please report the measured EC50 for C[N+](C)(C)c1ccc2cc(Br)c3ccccc3c2c1 759

Supply recorded EC50 for COc1c([N+](=O)[O-])cc2c(c1Br)OC1(C=C2)N(C)c2ccccc2C1(C)C (configuration not stated) here. 1740

Please indicate EC50 recorded for N/C(=N\C(=O)c1nc(Cl)c(N)nc1N)NCc1ccc(Cl)c(Cl)c1 89.6

Kindly indicate its recorded EC50. Item: COc1ccc(C2N=C(N)N=C(N)N2c2ccc(C)cc2)cc1 (configuration not stated) 73.8

Please indicate EC50 recorded for COC(=O)C1=CNC=C(C(=O)OC)C1c1ccc(Cl)c([N+](=O)[O-])c1 135

Please look at this compound and report its EC50: CC(C)(C)C(=O)Cn1ccc(=N)c2ccccc21 2030

###

experiment: NOVARTIS: Cytotoxicity against human hepatocellular carcinoma cell line (Huh7); format: toxicity, cell-based, Huh-7; conditions: Huh7 cells (hepatocellular carcinoma cell line)
So I've got a bunch of compounds here, and I need their CC50 values.

Supply measured CC50 of O=C(Nc1ccccc1Cl)c1cc2ccccc2cc1O in your reply. > 100 µM

Give the value of CC50 reported for the following: COCCOC(=O)C1=C(C)NC2=C(C(=O)CC(c3ccc(OC)c(OC)c3)C2)C1c1ccccc1Cl (centres undefined) > 100 µM

Look up and report measured CC50 for this entry: O=C(NCC1(c2ccccc2)CCCC1)C(=O)Nc1nncs1 > 10 µM

State its CC50 for this compound: CSc1nccc(-c2cc(F)cc3c2OC(CNC(=O)C2CC(=O)c4ccccc42)C3)n1 (centres undefined) > 10 µM

Give the reported value of CC50 for this record: CC(C)n1nnnc1CN1CCN(c2ccccc2F)CC1 > 10 µM

Provide measured CC50 value, entry: Cc1cc(Nc2ccc(C)c(Cl)c2)n2ncnc2n1 > 10 µM

Identify measured CC50 corresponding to CCOC(=O)c1cnc2ccccc2c1NCCCN(C)C 52.1 µM

# return recorded CC50 for entry Cc1onc(O)c1CC(N)C(=O)O (centres undefined) > 10 µM

Name the recorded CC50 of the item C[C@@H]1C[C@H]2CC[C@H](O2)[C@H](C)C(=O)O[C@@H](C)C[C@@H]2CC[C@@H](O2)[C@@H](C)C(=O)O[C@H](C)C[C@H]2CC[C@@H](O2)[C@H](C)C(=O)O[C@@H](C)C[C@@H]2CC[C@@H](O2)[C@@H](C)C(=O)O1 in your answer. 3.53 µM

###

experiment: NOVARTIS: Cytotoxicity against human hepatocellular carcinoma cell line (Huh7); assay type: toxicity, cell-based, Huh-7; details: Huh7 cells (hepatocellular carcinoma cell line)
Can you tell me CC50 for the items I'm about to list?

Using known records, supply CC50 for COc1cc(C2C(C(=O)OCCc3ccccc3)=C(C)NC3=C2C(=O)CC(c2ccc(Cl)cc2)C3)ccc1OCc1ccccc1 (stereo not given) > 100 µM

Identify the reported CC50 for the following entry. Clc1ccccc1C[n+]1cc(-c2ccccc2)n2c1CCC2 > 100 µM

Answer with the recorded CC50 for the compound listed here: CCn1c(SCc2ccc(Cl)cc2Cl)nc2sc3c(c2c1=O)CCN(C)C3 > 100 µM

Please list CC50 recorded for the compound COc1ccc(-c2csc3nc(COc4cccc(C)c4)nn23)c(O)c1 > 100 µM

Look up CC50 of O=C(Nc1ccccc1)NC1CC2CCCC(C1)N2CCc1ccccc1 (stereo not given) and report it. > 10 µM

###

Task for the reader: assign each of the following compounds its reported CC50.
assay: NOVARTIS: Cytotoxicity against human hepatocellular carcinoma cell line (Huh7); type: toxicity, cell-based, Huh-7; details: Huh7 cells (hepatocellular carcinoma cell line)
Structures can show the parent of a compound that is named as a salt.

Return reported CC50. Input compound: COc1cccc(-c2ccc(O)c(CNCC3CCCCC3)c2)n1 46.6 µM

Hello, please tell me recorded CC50 for this one: CC(C)c1nc(N2CCN(C(=S)NCc3ccccc3)CC2)c(C#N)c2c1COC(C)(C)C2 > 100 µM

Report CC50 for Cc1ccc(NC(=O)C(C)Sc2nnc(-c3ccc(O)cc3)o2)cc1 (centres undefined) > 10 µM

Tell us which CC50 value is on record for CC(C)CNc1nc(NCCCn2ccnc2)ncc1C(=O)NCc1ccccc1 > 10 µM

State its CC50: CCOC(=O)C1=C(C)NC2=C(C(=O)C(C(=O)OC)C(C)C2)C1c1cc(Br)c(OC)c(OC)c1 (centres undefined) > 100 µM

Give the reported value of CC50 for this record: Cc1[nH]c(=O)[nH]c(=O)c1S(=O)(=O)Nc1ccc2oc(-c3ccncc3)nc2c1 > 100 µM

Check the records and state CC50 for CN1CCN(c2nc(NN=Cc3cc(Br)c(O)cc3O)nc(Nc3ccc([N+](=O)[O-])cc3)n2)CC1 > 10 µM

Give the reported CC50 for this compound. CCCOC(=O)C1=C(C)NC2=C(C(=O)CC(c3ccc(OC)c(OC)c3)C2)C1c1ccc(O)c(OCC)c1 (centres undefined) > 100 µM

State its CC50 for this compound: CC1(C)N=C(N)N=C(N)N1c1ccc(Oc2ccc(Cl)cc2)c(Cl)c1 35.1 µM

Supply CC50 value. Item: O=C(O)c1ccc(NC(=O)c2ccc(N3C(=O)C4C5C=CC(C5)C4C3=O)cc2)cc1 (centres undefined) > 100 µM

Find the measured CC50 of CC[C@H]1CN2CCc3cc(OC)c(OC)cc3[C@@H]2C[C@@H]1C[C@H]1NCCc2cc(O)c(OC)cc21 [CEPHAELINE HYDROBROMIDE] and report it. 0.0261 µM

Check the records and state CC50 for O=C1c2ccccc2C2=Nc3ccccc3SC(c3cccc(F)c3)C12 (centres undefined) 30.3 µM

State, in one line, measured CC50 of O=C(Cc1cccs1)N1CCOc2c(cc(-c3csc4ccccc34)cc2OCCc2ccccn2)C1 > 100 µM

Give CC50 for CC(=O)N/C(=C\c1ccc(OC(F)F)cc1)C(=O)O > 10 µM

State, in one line, measured CC50 of CC1=C(C(=O)OC(C)C)C(c2ccc(Br)cc2)C2=C(CC(c3ccc(Cl)cc3)CC2=O)N1 (centres undefined) > 100 µM

Tell me measured CC50 for COc1ccccc1CNc1ncc(C(=O)NCc2ccccc2)c(NCCc2ccccc2)n1 please. > 10 µM

Report measured CC50; entry is CCOc1ccc(N=C2NC(=O)S/C2=C2/C(=O)Nc3ccc(Br)cc32)cc1 > 10 µM

Write down CC50 measured for item CC[n+]1c(C)n(-c2ccccc2)c2ccc(C3Nc4ccccc4S3)cc21 (centres undefined) > 100 µM

Indicate the recorded CC50 value for this compound: O=C1CN(C(=O)CCC2CCCCC2)C(c2ccccc2)c2cc(F)ccc2N1 (centres undefined) 33.2 µM
